# Target Desc: 5-HT2A (Homo sapiens, UniProt P28223)
# Sequence (P28223 whole entry): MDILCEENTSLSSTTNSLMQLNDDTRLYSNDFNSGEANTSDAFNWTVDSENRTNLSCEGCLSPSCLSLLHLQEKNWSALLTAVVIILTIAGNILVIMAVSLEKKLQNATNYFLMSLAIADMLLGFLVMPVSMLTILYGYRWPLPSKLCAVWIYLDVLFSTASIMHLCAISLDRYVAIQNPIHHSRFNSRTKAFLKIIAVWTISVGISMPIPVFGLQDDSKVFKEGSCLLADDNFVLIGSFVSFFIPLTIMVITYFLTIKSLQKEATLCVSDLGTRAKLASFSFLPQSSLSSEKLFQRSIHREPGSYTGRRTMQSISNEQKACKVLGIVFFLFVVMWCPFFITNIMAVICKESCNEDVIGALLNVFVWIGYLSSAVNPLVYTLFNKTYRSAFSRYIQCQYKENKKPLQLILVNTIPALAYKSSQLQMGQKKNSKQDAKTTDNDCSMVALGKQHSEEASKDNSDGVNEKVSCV
Test Readout: Ki (µM)
Numbers only, in µM.

What value of measured Ki is listed for Cn1cnc([N+](=O)[O-])c1Sc1nnc2n(CC3CC3)c(=O)c3sc(Cl)cc3n12 [Allopole] ?
9.2

---

Would you kindly list pKi for each of these molecules?
# Target Desc: H1 (Homo sapiens, UniProt P35367)
# Sequence (P35367 whole entry): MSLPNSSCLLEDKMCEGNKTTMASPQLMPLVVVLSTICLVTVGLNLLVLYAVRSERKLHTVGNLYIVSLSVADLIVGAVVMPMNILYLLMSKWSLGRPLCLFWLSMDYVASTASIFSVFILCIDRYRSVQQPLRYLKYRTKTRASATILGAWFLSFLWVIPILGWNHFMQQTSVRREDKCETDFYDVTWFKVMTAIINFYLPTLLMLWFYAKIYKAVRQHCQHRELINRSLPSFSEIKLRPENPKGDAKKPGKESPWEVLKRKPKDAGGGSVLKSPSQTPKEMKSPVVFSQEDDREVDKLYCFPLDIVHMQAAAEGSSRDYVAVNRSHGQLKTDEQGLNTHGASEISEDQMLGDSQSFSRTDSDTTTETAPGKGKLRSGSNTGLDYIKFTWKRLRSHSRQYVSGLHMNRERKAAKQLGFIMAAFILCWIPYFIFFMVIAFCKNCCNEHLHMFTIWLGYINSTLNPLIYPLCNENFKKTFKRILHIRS
pKi: −log10 of the molar value.

Cn1cnc([N+](=O)[O-])c1Sc1nnc2n(CC3CC3)c(=O)c3sc(Cl)cc3n12 [Allopole]; < 5.00

Next up:
Recorded pKi for O=c1c2sc(Cl)cc2n2c(=S)[nH]nc2n1CC1CC1 [Allopole-A] with H1 (Homo sapiens, UniProt P35367), please?
< 5.00

---

As a worked illustration, we turn to pKi data collected for Alpha2B (Homo sapiens, UniProt P18089).
pKi: −log10 of the molar value.

O=c1c2sc(Cl)cc2n2c(=S)[nH]nc2n1CC1CC1; < 5.00

Read the next record carefully.
GET /values?readout=pKi&item= Cn1cnc([N+](=O)[O-])c1Sc1nnc2n(CC3CC3)c(=O)c3sc(Cl)cc3n12
< 5.00

---

# Target Desc: full-length Plk1 (Homo sapiens)
# Construct: expressed in transfected cells; host or cells: HEK293A cells infected with adenovirus; total lysate
# Sequence (P53350 whole entry): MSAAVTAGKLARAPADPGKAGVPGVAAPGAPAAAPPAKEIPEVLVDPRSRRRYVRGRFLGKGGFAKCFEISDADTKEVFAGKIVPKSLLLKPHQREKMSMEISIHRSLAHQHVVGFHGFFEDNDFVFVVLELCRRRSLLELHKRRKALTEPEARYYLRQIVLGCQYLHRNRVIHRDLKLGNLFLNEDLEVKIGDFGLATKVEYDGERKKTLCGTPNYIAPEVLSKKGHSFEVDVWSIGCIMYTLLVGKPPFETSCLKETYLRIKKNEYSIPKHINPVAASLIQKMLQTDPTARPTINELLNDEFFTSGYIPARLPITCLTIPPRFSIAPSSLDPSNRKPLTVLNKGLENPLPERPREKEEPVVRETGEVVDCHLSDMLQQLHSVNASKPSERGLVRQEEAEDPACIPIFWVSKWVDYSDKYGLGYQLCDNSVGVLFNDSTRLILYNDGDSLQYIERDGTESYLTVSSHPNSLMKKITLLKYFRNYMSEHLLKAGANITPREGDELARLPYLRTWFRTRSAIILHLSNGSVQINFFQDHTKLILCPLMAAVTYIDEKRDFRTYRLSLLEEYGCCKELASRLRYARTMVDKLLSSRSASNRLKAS
# Method Description: ELISA-based PBD1-binding inhibition assay
# Test Conditions: total lysates from HEK293A cells expressing full-length Plk1; biotinylated PBIP1 p-T78 peptide; read-out: Anti-Plk1 (full length) ELISA (IC50) Mean ± SEM
pIC50: −log10 of the molar value.
Test Readout: pIC50

Examples with answers:
O=c1c2sc(Cl)cc2n2c(=S)[nH]nc2n1CC1CC1; 5.85
CCCn1c(=O)c2sc3ccccc3c2n2c(Sc3c([N+](=O)[O-])ncn3C)nnc12; < 4.30
CCCn1c(=O)c2oc3ccccc3c2n2c(Sc3c([N+](=O)[O-])ncn3C)nnc12; < 4.30
CCCn1c(=O)c2sccc2n2c(Sc3c([N+](=O)[O-])ncn3C)nnc12; < 4.30
CCCn1c(=O)c2oc3cccc(F)c3c2n2c(Sc3c([N+](=O)[O-])ncn3C)nnc12; < 4.30
CCCn1c(=O)c2sc(C(C)(C)C)cc2n2c(Sc3c([N+](=O)[O-])ncn3C)nnc12; < 4.30
Cc1cc2c(s1)c(=O)n(CC1CC1)c1n[nH]c(=S)n21; 5.78
O=C(CCCCC1SCC2NC(=O)NC21)NCCOCCOCCOCCOCCC(=O)NCCCn1c(=O)c2cc(F)ccc2n2c(=S)[nH]nc12 (stereo not shown); 5.03

I have 2 compounds here; please give me pIC50 for each one.
1. CCCn1c(=O)c2sc(Cl)cc2n2c(Sc3c([N+](=O)[O-])ncn3C)nnc12
2. Cc1cc2c(s1)c(=O)n(CC1CC1)c1nnc(Sc3c([N+](=O)[O-])ncn3C)n21

1. < 4.30
2. < 4.30

---

Below are pKi values recorded for 5-HT7A (Homo sapiens).
pKi: −log10 of the molar value.

Cn1cnc([N+](=O)[O-])c1Sc1nnc2n(CC3CC3)c(=O)c3sc(Cl)cc3n12; < 5.00

Now turn to the next compound.
# input compound: O=c1c2sc(Cl)cc2n2c(=S)[nH]nc2n1CC1CC1 ; wanted: its pKi
< 5.00
